Test system: primary human T-cells
Test: Proliferation assay after 5 days (CellTiter-Glo, CD3 stimulation; PBS counter screen)
Format: cell-based
Details: Homo sapiens, T-cell, 120 h, CD3 stimulation, 5 days; normalized to reference compound A1 as stimulator control = 100%, DMSO neutral control; read-out: Emax proliferation (% activation)
measured.property: Emax (%)
Express it in %; write the number only.

Problem: Name the recorded Emax of the item `CC(C)(C)NC(=O)c1nnc(-c2cc3c(cc2F)S(=O)(=O)C[C@H](N)C(=O)N3Cc2ccc(Cl)cc2)o1` in your answer.
Result: 96

Problem: Name the recorded Emax of the item `CC(C)Cc1nnc(-c2cc3c(cc2F)S(=O)(=O)C[C@H](N)C(=O)N3Cc2ccc(Cl)cc2)o1` in your answer.
Result: 121

Problem: Name the recorded Emax of the item `CC(C)(C)c1nnc(-c2cc3c(cc2F)S(=O)(=O)C[C@H](N)C(=O)N3Cc2ccccn2)o1` in your answer.
Result: 31

Problem: Name the recorded Emax of the item N[C@H]1CS(=O)(=O)c2ccc(-c3nnc(C4CC5(CC(O)C5)C4)o3)cc2N(Cc2ccc(Cl)cc2)C1=O (stereo partly drawn) in your answer.
Result: 157

Problem: Name the recorded Emax of the item `Cc1ccc(-c2nnc(-c3ccc4c(c3)N(Cc3ccc(Cl)cc3)C(=O)[C@@H](N)CS4(=O)=O)o2)cn1` in your answer.
Result: 69

Problem: Name the recorded Emax of the item N[C@H]1CS(=O)(=O)c2cc(F)c(-c3noc(C4(CO)CCCO4)n3)cc2N(Cc2ccc(OC(F)(F)F)cc2)C1=O (stereo partly drawn) in your answer.
Result: 128

Problem: Name the recorded Emax of the item CC(CC(F)(F)F)Nc1nnc(-c2cc3c(cc2F)S(=O)(=O)C[C@H](N)C(=O)N3Cc2ccc(Cl)cc2)o1 (stereo partly drawn) in your answer.
Result: 88

Problem: Name the recorded Emax of the item `N[C@H]1CS(=O)(=O)c2ccc(-c3nnc(CC(F)(F)F)o3)c(F)c2N(Cc2ccc(Cl)cc2)C1=O` in your answer.
Result: 221

Problem: Name the recorded Emax of the item `N[C@H]1CS(=O)(=O)c2cc(F)c(-c3noc(C(F)(F)C(F)(F)F)n3)cc2N(Cc2ccc(Cl)cc2)C1=O` in your answer.
Result: 129

Problem: Name the recorded Emax of the item N[C@H]1CS(=O)(=O)c2cc(F)c(-c3nnc(C45CNCCC4C5)o3)cc2N(Cc2ccc(Cl)cc2)C1=O (stereo partly drawn) in your answer.
Result: 72

Problem: Name the recorded Emax of the item `CC(C)(C)c1nnc(-c2ccc3c(c2)N(Cc2ccc(C(C)(C)C#N)cc2)C(=O)[C@@H](N)CS3(=O)=O)o1` in your answer.
Result: 112

Problem: Name the recorded Emax of the item COC(=O)N1CC(n2nnc(-c3cc4c(cc3F)S(=O)(=O)C[C@H](N)C(=O)N4Cc3ccc(Cl)cc3)n2)CC(F)(F)C1 (stereo partly drawn) in your answer.
Result: 132

Problem: Name the recorded Emax of the item `CC1(c2nnc(-c3cc4c(cc3F)S(=O)(=O)C[C@H](N)C(=O)N4Cc3ccc(Cl)cc3)o2)CCOCC1` in your answer.
Result: 141

Problem: Name the recorded Emax of the item `Cc1cc(S(C)(=O)=O)ccc1-c1nnc(-c2ccc3c(c2)N(Cc2ccc(Cl)cc2)C(=O)[C@@H](N)CS3(=O)=O)o1` in your answer.
Result: 69

Problem: Name the recorded Emax of the item `CC1(c2nc(-c3cc4c(cc3F)S(=O)(=O)C[C@H](N)C(=O)N4Cc3ccc(Cl)cc3)no2)CCN(C(=O)N2CCCC2)CC1` in your answer.
Result: 84

Problem: Name the recorded Emax of the item `COCC1(Nc2nnc(-c3ccc4c(c3)N(Cc3ccc(Cl)cc3)C(=O)[C@@H](N)CS4(=O)=O)o2)CC(F)(F)C1` in your answer.
Result: 83

Problem: Name the recorded Emax of the item CC(N)(c1nc(-c2cc3c(cc2F)S(=O)(=O)C[C@H](N)C(=O)N3Cc2ccc(Cl)cc2)no1)C(F)(F)F (stereo partly drawn) in your answer.
Result: 157

Problem: Name the recorded Emax of the item `COC(=O)N1CC2CC(c3nnc(-c4cc5c(cc4F)S(=O)(=O)C[C@H](N)C(=O)N5Cc4ccc(Cl)cc4)o3)(C2)C1` in your answer.
Result: 77

Problem: Name the recorded Emax of the item `CC(C)(C)c1nnc(-c2cc3c(cc2Br)S(=O)(=O)C[C@H](N)C(=O)N3Cc2ccc(Cl)cc2)o1` in your answer.
Result: 91

Problem: Name the recorded Emax of the item `CC(C)(C)c1nnc(-c2cc3c(cc2F)S(=O)(=O)C[C@H](N)C(=O)N3Cc2ccc(OCC(N)=O)cc2)o1` in your answer.
Result: 98

Problem: Name the recorded Emax of the item `Cc1ccccc1-c1nnc(-c2cc3c(cc2F)S(=O)(=O)C[C@H](N)C(=O)N3Cc2ccc(Cl)cc2)o1` in your answer.
Result: 112

Problem: Name the recorded Emax of the item N[C@H]1CS(=O)(=O)c2cc(F)c(-c3nnc(C4CNCC(F)(F)C4)o3)cc2N(Cc2ccc(Cl)cc2)C1=O (stereo partly drawn) in your answer.
Result: 96

Problem: Name the recorded Emax of the item `CN(C)c1cc2c(cc1-c1nnc(C(C)(C)C)o1)N(Cc1ccc(Cl)cc1)C(=O)[C@@H](N)CS2(=O)=O` in your answer.
Result: 10

Problem: Name the recorded Emax of the item `CC(C)(C#N)c1nc(-c2cc3c(cc2F)S(=O)(=O)C[C@H](N)C(=O)N3Cc2ccc(Cl)cc2)no1` in your answer.
Result: 130

Problem: Name the recorded Emax of the item N[C@H]1CS(=O)(=O)c2cc(F)c(-c3nnc(C4CN(CCO)CC(F)(F)C4)o3)cc2N(Cc2ccc(Cl)cc2)C1=O (stereo partly drawn) in your answer.
Result: 78

Problem: Name the recorded Emax of the item CC(C)(C)c1nnc(-c2cc3c(cc2F)S(=O)(=O)C[C@H](N)C(=O)N3Cc2ccc(OC3CCOC3)cc2)o1 (stereo partly drawn) in your answer.
Result: 107

Problem: Name the recorded Emax of the item `CC(C)(C)n1cnc(-c2cc3c(cc2F)S(=O)(=O)C[C@H](N)C(=O)N3Cc2ccc(Cl)cc2)n1` in your answer.
Result: 93

---

measured.property: IC50 (nM)
Express it in nM; write the number only.

Problem: Tell me its IC50 on hDGKzeta(1-928)-N-His (Homo sapiens (Human), UniProt Q13574): CC(N)(c1nc(-c2cc3c(cc2F)S(=O)(=O)C[C@H](N)C(=O)N3Cc2ccc(Cl)cc2)no1)C(F)(F)F (stereo partly shown) [Example 297]
Sequence (Q13574 whole entry): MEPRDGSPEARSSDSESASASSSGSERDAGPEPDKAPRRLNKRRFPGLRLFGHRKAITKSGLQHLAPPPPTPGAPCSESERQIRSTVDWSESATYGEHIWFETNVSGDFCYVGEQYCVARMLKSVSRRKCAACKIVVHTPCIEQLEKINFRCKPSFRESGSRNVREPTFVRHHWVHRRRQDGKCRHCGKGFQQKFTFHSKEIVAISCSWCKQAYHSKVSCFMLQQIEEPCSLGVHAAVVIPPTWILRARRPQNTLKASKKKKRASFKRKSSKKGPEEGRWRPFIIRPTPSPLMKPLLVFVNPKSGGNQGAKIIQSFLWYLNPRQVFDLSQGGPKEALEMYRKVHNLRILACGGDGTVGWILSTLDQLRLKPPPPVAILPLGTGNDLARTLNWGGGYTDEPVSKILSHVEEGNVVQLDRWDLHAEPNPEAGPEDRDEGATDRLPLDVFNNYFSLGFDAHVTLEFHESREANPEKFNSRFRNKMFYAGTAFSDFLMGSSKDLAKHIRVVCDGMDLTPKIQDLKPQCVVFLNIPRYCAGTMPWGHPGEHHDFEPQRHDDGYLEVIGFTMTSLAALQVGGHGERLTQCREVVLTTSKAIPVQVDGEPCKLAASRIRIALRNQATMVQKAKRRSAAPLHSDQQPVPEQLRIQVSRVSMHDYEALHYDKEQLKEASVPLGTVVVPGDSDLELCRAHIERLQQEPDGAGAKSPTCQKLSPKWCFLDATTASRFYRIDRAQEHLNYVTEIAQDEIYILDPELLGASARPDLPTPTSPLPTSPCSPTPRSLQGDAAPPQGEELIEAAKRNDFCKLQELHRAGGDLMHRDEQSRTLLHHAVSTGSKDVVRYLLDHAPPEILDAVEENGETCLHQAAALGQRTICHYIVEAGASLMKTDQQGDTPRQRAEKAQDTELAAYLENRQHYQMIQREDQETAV
Result: 357

Problem: Tell me its IC50 on hDGKzeta(1-928)-N-His (Homo sapiens (Human), UniProt Q13574): CC1(C)CN(c2nc(-c3cc4c(cc3F)S(=O)(=O)C[C@H](N)C(=O)N4Cc3ccc(Cl)cc3)no2)CCO1 [Example 205]
Result: 147

Problem: Tell me its IC50 on hDGKzeta(1-928)-N-His (Homo sapiens (Human), UniProt Q13574): CC(C)(C)c1nnc(-c2cc3c(cc2F)[S+]([O-])C[C@H](N)C(=O)N3Cc2ccc(OC(F)(F)F)cc2)o1 (stereo partly shown) [Example 62]
Result: 622

Problem: Tell me its IC50 on hDGKzeta(1-928)-N-His (Homo sapiens (Human), UniProt Q13574): CC(C)(C)c1nnc(-c2cc3c(cc2F)S(=N)(=O)C[C@H](N)C(=O)N3Cc2ccc(OC(F)(F)F)cc2)o1 (single isomer, unassigned) [Example 518]
Result: 639

Problem: Tell me its IC50 on hDGKzeta(1-928)-N-His (Homo sapiens (Human), UniProt Q13574): CC(C)(C)c1nnc(-c2cc3c(cc2F)S(=O)(=O)C[C@H](NC(=O)CN)C(=O)N3Cc2ccc(Cl)cc2)o1 [Example 266]
Result: 40100

Problem: Tell me its IC50 on hDGKzeta(1-928)-N-His (Homo sapiens (Human), UniProt Q13574): COC(=O)N1CCC(c2nc(-c3cc4c(cc3F)S(=O)(=O)C[C@H](N)C(=O)N4Cc3ccc(OC4CCCC4)cc3)no2)C1 (stereo partly shown) [Example 348]
Result: 374

Problem: Tell me its IC50 on hDGKzeta(1-928)-N-His (Homo sapiens (Human), UniProt Q13574): CC(C)(C)c1nnc(-c2ccc3c(c2)N(Cc2ccc(OC(F)(F)C(F)F)cc2)C(=O)[C@@H](N)CS3(=O)=O)o1 [Example 442]
Result: 285

Problem: Tell me its IC50 on hDGKzeta(1-928)-N-His (Homo sapiens (Human), UniProt Q13574): CC1(Nc2nnc(-c3ccc4c(c3)N(Cc3ccc(Cl)cc3)C(=O)[C@@H](N)CS4(=O)=O)o2)CC(F)(F)C1 [Example 406]
Result: 14000

Problem: Tell me its IC50 on hDGKzeta(1-928)-N-His (Homo sapiens (Human), UniProt Q13574): COC(=O)N1CC2CC(c3nnc(-c4cc5c(cc4F)S(=O)(=O)C[C@H](N)C(=O)N5Cc4ccc(Cl)cc4)o3)(C2)C1 [Example 184]
Result: 290

Problem: Tell me its IC50 on hDGKzeta(1-928)-N-His (Homo sapiens (Human), UniProt Q13574): CC(C)(C)c1nc(-c2cc3c(cc2F)S(=O)(=O)C[C@H](N)C(=O)N3Cc2ccc(OC3CCCC3)cc2)no1 [Example 350]
Result: 235

Problem: Tell me its IC50 on hDGKzeta(1-928)-N-His (Homo sapiens (Human), UniProt Q13574): CC(C)(C)c1nnc(-c2cc3c(cc2F)S(=O)(=O)C[C@H](N)C(=O)N3Cc2ccc(OC3CCCC3)cc2)o1 [Example 253]
Result: 105

Problem: Tell me its IC50 on hDGKzeta(1-928)-N-His (Homo sapiens (Human), UniProt Q13574): CC(C)(C)n1nnc(-c2cc3c(cc2F)S(=O)(=O)C[C@H](NC(=O)CN)C(=O)N3Cc2ccc(Cl)cc2)n1 [Example 29]
Result: 33100

Problem: Tell me its IC50 on hDGKzeta(1-928)-N-His (Homo sapiens (Human), UniProt Q13574): N[C@H]1CS(=O)(=O)c2ccc(-c3nnc(N4[C@@H]5CC[C@H]4COC5)o3)cc2N(Cc2ccc(Cl)cc2)C1=O [Example 407]
Result: 2660
